Target Or Test System: OASS-A (Salmonella typhimurium, UniProt P0A1E3)
Construct: His6 (N, cleaved yes); made in house; host or cells: E. coli Rosetta (DE3)
Sequence (P0A1E3 whole entry): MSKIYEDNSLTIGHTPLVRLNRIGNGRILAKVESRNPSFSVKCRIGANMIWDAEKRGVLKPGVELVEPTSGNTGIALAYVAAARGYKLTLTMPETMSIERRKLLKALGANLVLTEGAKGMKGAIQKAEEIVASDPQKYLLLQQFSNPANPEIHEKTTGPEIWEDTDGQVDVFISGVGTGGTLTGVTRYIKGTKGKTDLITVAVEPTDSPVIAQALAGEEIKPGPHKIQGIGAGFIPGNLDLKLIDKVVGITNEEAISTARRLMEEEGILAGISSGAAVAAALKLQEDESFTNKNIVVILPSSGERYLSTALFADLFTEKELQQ
Assay Explanation: 96-well activity assay (cysteine-ninhydrin), OASS-A
Assay type: biochemical, Salmonella enterica serovar Typhimurium
Assay Conditions: compound 1 µM; bisulfide 600 µM, OAS at Km; two replicates; ns = Not Significant
Endpoint Label: % inhibition OASS-A

Answered cases to consult:
CC(C)(C)c1ccc(-n2nccc2C(=O)O)cc1 ... ns
O=C(O)c1ccn(-c2ccc(Cl)cc2)n1 ... ns
O=C(O)c1ccnn1-c1ccccc1 ... ns
O=C(O)c1ccn(C2CCCCC2)n1 ... ns
O=C(O)c1ccnn1C1CCCCC1 ... ns

Sure, the documented % inhibition OASS-A for `CC(C)(C)c1ccc(-n2ccc(C(=O)O)n2)cc1` is ns

Sure, the documented % inhibition OASS-A for `Cc1ccc(-n2nccc2C(=O)O)cc1` is ns^b

Sure, the documented % inhibition OASS-A for `O=C(O)c1ccn(-c2ccc(Br)cc2)n1` is ns

Sure, the documented % inhibition OASS-A for `O=C(O)c1ccnn1-c1ccc(Br)cc1` is ns

Sure, the documented % inhibition OASS-A for `O=C(O)c1ccn(-c2ccc(F)cc2)n1` is ns

Sure, the documented % inhibition OASS-A for `O=C(O)c1ccnn1-c1ccc(Cl)cc1` is ns

---

Kd values by entry
Target Or Test System: OASS-B (Salmonella typhimurium, UniProt P29848)
Construct: His6 (N, cleaved yes); made in house; host or cells: E. coli Rosetta (DE3)
Sequence (P29848 1-303): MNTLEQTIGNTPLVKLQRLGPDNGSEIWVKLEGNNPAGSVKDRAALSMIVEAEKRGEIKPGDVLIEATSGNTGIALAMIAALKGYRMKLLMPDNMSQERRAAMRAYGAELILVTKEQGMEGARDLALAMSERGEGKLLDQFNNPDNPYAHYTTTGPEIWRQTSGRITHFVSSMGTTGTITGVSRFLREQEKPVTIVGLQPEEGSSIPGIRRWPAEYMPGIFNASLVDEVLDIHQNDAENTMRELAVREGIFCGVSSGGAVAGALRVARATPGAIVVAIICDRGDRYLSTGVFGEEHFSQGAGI
Assay Explanation: biochemical
Type: binding
Report as a plain number; the unit µM is understood.

Answered cases to consult:
O=C(O)c1ccc[nH]1 ... 465
O=C(O)c1ccn[nH]1 ... 272

Sure, the documented Kd for `O=C(O)c1nccs1` is 338

---

Target Or Test System: OASS-B (Salmonella typhimurium, UniProt P29848)
Construct: His6 (N, cleaved yes); made in house; host or cells: E. coli Rosetta (DE3)
Assay Explanation: biochemical
Type: binding
Assay Conditions: LE = (1.37/HA). pIC50, HA = heavy atoms
LE (OASS-B) values by entry
Report as a plain number; the unit kcal/mol/HA is understood.

Answered cases to consult:
Cc1ccc(C[C@@]2(C(=O)O)C[C@H]2c2ccccc2)cc1 ... 0.50
O=C(O)c1nccs1 ... 0.60
O=C(O)c1ccc[nH]1 ... 0.60

In the following, a different compound is considered.
Sure, the documented LE (OASS-B) for `O=C(O)c1ccn[nH]1` is 0.61

---

Target Or Test System: OASS-A (Salmonella typhimurium)
Construct: His6 (N, cleaved yes); made in house; host or cells: E. coli Rosetta (DE3)
Assay Explanation: 96-well activity assay (cysteine-ninhydrin), OASS-A
Assay type: biochemical, Salmonella enterica serovar Typhimurium
Assay Conditions: compound 1 mM; bisulfide 600 µM, OAS at Km; two replicates; read-out: % inhibition OASS-A
fulfilled means recorded inhibition at 1000 µM is 70% or above; not fulfilled means it is below 70%.

O=C(O)c1ccn(-c2ccc(Br)cc2)n1 [Compound 5e] ... not fulfilled
O=C(O)c1ccnn1C1CCCCC1 [Compound 4h] ... not fulfilled
O=C(O)c1ccn(C2CCCCC2)n1 [Compound 5h] ... fulfilled
O=C(O)c1ccnn1-c1ccccc1 [Compound 4b, 1-phenyl-1H-pyrazole-5-carboxylic acid] ... not fulfilled
O=C(O)c1ccn(-c2ccc(Cl)cc2)n1 [Compound 5d] ... not fulfilled
O=C(O)c1ccn(-c2ccc(F)cc2)n1 [Compound 5g] ... fulfilled

-- ask Tell me whether inhibition at 1000 µM is at least 70% here: CC(C)(C)c1ccc(-n2ccc(C(=O)O)n2)cc1 [Compound 5f]
-- reply fulfilled

-- ask Tell me whether inhibition at 1000 µM is at least 70% here: CC(C)(C)c1ccc(-n2nccc2C(=O)O)cc1 [Compound 4f]
-- reply not fulfilled

-- ask Tell me whether inhibition at 1000 µM is at least 70% here: O=C(O)c1ccnn1-c1ccc(Cl)cc1 [Compound 4d]
-- reply not fulfilled

-- ask Tell me whether inhibition at 1000 µM is at least 70% here: O=C(O)c1ccnn1-c1ccc(F)cc1 [Compound 4g]
-- reply fulfilled

-- ask Tell me whether inhibition at 1000 µM is at least 70% here: O=C(O)c1ccn[nH]1 [Compound 4c, 1H-pyrazole-5-carboxylic acid]
-- reply fulfilled
